# System: B. subtilis EC1524
# Assay Notes: Micro-broth dilution and drop plate antimicrobial susceptibility test
# Assay type: cell-based, Bacillus subtilis
# Condition Parameters: Bacillus subtilis, EC1524
Result Type: IC50 (µg/mL)
One number for each entry, in µg/mL.

# annotated cases, reported IC50 shown
CCCCCCCCC(=O)N[C@H]1[C@H](O[C@H]2O[C@H](CO)[C@@H](O)[C@H](O)[C@H]2NC(=O)CCCCCCCC)O[C@H](C[C@@H](O)[C@H]2O[C@@H](n3ccc(=O)[nH]c3=O)[C@H](O)[C@@H]2O)[C@H](O)[C@@H]1O; 0.015
CCCCCCCCCCCC(=O)N[C@H]1[C@H](O[C@H]2O[C@H](CO)[C@@H](O)[C@H](O)[C@H]2NC(=O)CCCCCCCCCCC)O[C@H](C[C@@H](O)[C@H]2O[C@@H](n3ccc(=O)[nH]c3=O)[C@H](O)[C@@H]2O)[C@H](O)[C@@H]1O; 58.9
CCCCCCCC(=O)N[C@H]1[C@H](O[C@H]2O[C@H](CO)[C@@H](O)[C@H](O)[C@H]2NC(=O)CCCCCCC)O[C@H](C[C@@H](O)[C@H]2O[C@@H](n3ccc(=O)[nH]c3=O)[C@H](O)[C@@H]2O)[C@H](O)[C@@H]1O; 0.2

Please turn your attention to the following entry.
Query: Specify IC50 for CCCCCCC(=O)N[C@H]1[C@H](O[C@H]2O[C@H](CO)[C@@H](O)[C@H](O)[C@H]2NC(=O)CCCCCC)O[C@H](C[C@@H](O)[C@H]2O[C@@H](n3ccc(=O)[nH]c3=O)[C@H](O)[C@@H]2O)[C@H](O)[C@@H]1O , system B. subtilis EC1524.
Reply: 3.12

---

# System: B. cereus ATCC11778
# Assay Notes: Micro-broth dilution and drop plate antimicrobial susceptibility test
# Assay type: cell-based, Bacillus cereus
# Condition Parameters: Bacillus cereus, ATCC11778
Exercise: for every item that follows, state its recorded MIC.
The reply must contain the numeric value and, after it, the unit.

# annotated cases, reported MIC shown
CCCCCCCC(=O)N[C@H]1[C@H](O[C@H]2O[C@H](CO)[C@@H](O)[C@H](O)[C@H]2NC(=O)CCCCCCC)O[C@H](C[C@@H](O)[C@H]2O[C@@H](n3ccc(=O)[nH]c3=O)[C@H](O)[C@@H]2O)[C@H](O)[C@@H]1O; 5.2 µg/mL
CCCCCCCCCCC(=O)N[C@H]1[C@H](O[C@H]2O[C@H](CO)[C@@H](O)[C@H](O)[C@H]2NC(=O)CCCCCCCCCC)O[C@H](C[C@@H](O)[C@H]2O[C@@H](n3ccc(=O)[nH]c3=O)[C@H](O)[C@@H]2O)[C@H](O)[C@@H]1O; 0.65 µg/mL

Please turn your attention to the following entry.
Query: Identify the reported MIC for the following entry. CCCCCCCCCCCC(=O)N[C@H]1[C@H](O[C@H]2O[C@H](CO)[C@@H](O)[C@H](O)[C@H]2NC(=O)CCCCCCCCCCC)O[C@H](C[C@@H](O)[C@H]2O[C@@H](n3ccc(=O)[nH]c3=O)[C@H](O)[C@@H]2O)[C@H](O)[C@@H]1O
Reply: 42 µg/mL

---

# Test system: P. aeruginosa ATCC27853
# Assay Notes: Micro-broth dilution and drop plate antimicrobial susceptibility test
# Type: cell-based
# Condition Parameters: Pseudomonas aeruginosa
Exercise: for every item that follows, state its recorded MIC.
One number for each entry, in µg/mL.

# annotated cases, reported MIC shown
CC(C)=CCC[C@H](C)CC(=O)N[C@H]1[C@H](O[C@H]2O[C@H](CO)[C@@H](O)[C@H](O)[C@H]2NC(=O)C[C@@H](C)CCC=C(C)C)O[C@H](C[C@@H](O)[C@H]2O[C@@H](n3ccc(=O)[nH]c3=O)[C@H](O)[C@@H]2O)[C@H](O)[C@@H]1O [TUN-Cit,Cit, Di-N-citronoyl-tunicamycin]; 170
CCCCCCCCC(=O)N[C@H]1[C@H](O[C@H]2O[C@H](CO)[C@@H](O)[C@H](O)[C@H]2NC(=O)CCCCCCCC)O[C@H](C[C@@H](O)[C@H]2O[C@@H](n3ccc(=O)[nH]c3=O)[C@H](O)[C@@H]2O)[C@H](O)[C@@H]1O [TUN-9,9, Di-N-nonanoyl-tunicamycin]; 83
CCCCCCCC(=O)N[C@H]1[C@H](O[C@H]2O[C@H](CO)[C@@H](O)[C@H](O)[C@H]2NC(=O)CCCCCCC)O[C@H](C[C@@H](O)[C@H]2O[C@@H](n3ccc(=O)[nH]c3=O)[C@H](O)[C@@H]2O)[C@H](O)[C@@H]1O [TUN-8,8, Di-N-octanoyl-tunicamycin]; 83

Please give MIC, item by item, for the list that follows.
1. CCCCCCC(=O)N[C@H]1[C@H](O[C@H]2O[C@H](CO)[C@@H](O)[C@H](O)[C@H]2NC(=O)CCCCCC)O[C@H](C[C@@H](O)[C@H]2O[C@@H](n3ccc(=O)[nH]c3=O)[C@H](O)[C@@H]2O)[C@H](O)[C@@H]1O [TUN-7,7, Di-N-heptanoyl tunicamycin]
2. CCCCCCCCCCCC(=O)N[C@H]1[C@H](O[C@H]2O[C@H](CO)[C@@H](O)[C@H](O)[C@H]2NC(=O)CCCCCCCCCCC)O[C@H](C[C@@H](O)[C@H]2O[C@@H](n3ccc(=O)[nH]c3=O)[C@H](O)[C@@H]2O)[C@H](O)[C@@H]1O [TUN-12,12, Di-N-dodecanoyl-tunicamycin]
3. CCCCCCCCCC(=O)N[C@H]1[C@H](O[C@H]2O[C@H](CO)[C@@H](O)[C@H](O)[C@H]2NC(=O)CCCCCCCCC)O[C@H](C[C@@H](O)[C@H]2O[C@@H](n3ccc(=O)[nH]c3=O)[C@H](O)[C@@H]2O)[C@H](O)[C@@H]1O [TUN-10,10, Di-N-decanoyl-tunicamycin]
4. CCCCCCCCCCC(=O)N[C@H]1[C@H](O[C@H]2O[C@H](CO)[C@@H](O)[C@H](O)[C@H]2NC(=O)CCCCCCCCCC)O[C@H](C[C@@H](O)[C@H]2O[C@@H](n3ccc(=O)[nH]c3=O)[C@H](O)[C@@H]2O)[C@H](O)[C@@H]1O [TUN-11,11, Di-N-undecanoyl-tunicamycin]

Reply:
83
170
83
83
